Cited source: ChEMBL document CHEMBL1132018

System: Interstitial collagenase (Homo sapiens, UniProt P03956)
Sequence (P03956 whole entry): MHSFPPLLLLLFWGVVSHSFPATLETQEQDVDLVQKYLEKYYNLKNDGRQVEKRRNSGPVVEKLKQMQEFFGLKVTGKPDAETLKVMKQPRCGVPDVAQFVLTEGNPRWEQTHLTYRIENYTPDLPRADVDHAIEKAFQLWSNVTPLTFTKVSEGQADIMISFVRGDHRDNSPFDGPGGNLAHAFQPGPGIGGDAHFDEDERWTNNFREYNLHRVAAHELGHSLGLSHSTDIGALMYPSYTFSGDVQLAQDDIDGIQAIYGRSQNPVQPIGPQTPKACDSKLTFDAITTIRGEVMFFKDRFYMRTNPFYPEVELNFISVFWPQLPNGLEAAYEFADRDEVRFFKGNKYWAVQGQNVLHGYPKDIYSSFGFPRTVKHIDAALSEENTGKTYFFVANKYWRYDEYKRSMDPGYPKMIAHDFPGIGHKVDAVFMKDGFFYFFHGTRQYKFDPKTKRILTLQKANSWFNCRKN
Test: In vitro inhibitory activity against matrix metalloprotease 1
pIC50: −log10 of the molar value.
Recorded Metric: pIC50

Below: 2 molecules and their reported pIC50.
Smiles: CCO[C@H]1CC[C@@](CS)(C(=O)N[C@@H](Cc2ccccc2)C(=O)NC)CC1
pIC50: 6.15

Smiles: CCCO[C@H]1CC[C@@](CS)(C(=O)N[C@@H](Cc2ccccc2)C(=O)NC)CC1
pIC50: 5.22

a. CCO[C@H]1CC[C@@](CS)(C(=O)N[C@@H](Cc2ccccc2)C(=O)NC2CCCCC2)CC1
b. CCO[C@H]1CC[C@@](CS)(C(=O)N[C@@H](Cc2ccccc2)C(=O)Nc2ccc(OC)cc2)CC1
Between these two entries, a and b , state which has the higher pIC50. Pick one; state its label. b

A. CCO[C@H]1CC[C@@](CS)(C(=O)N[C@@H](Cc2ccccc2)C(=O)Nc2ccccn2)CC1
B. CCO[C@H]1CC[C@@](CS)(C(=O)N[C@@H](Cc2cccnc2)C(=O)Nc2ccccc2)CC1
C. CCO[C@H]1CC[C@@](CS)(C(=O)N[C@@H](Cc2ccccc2)C(=O)Nc2ccc(Cl)cc2)CC1
Arrange the 3 entries by pIC50 so the values rise. Answer by naming the labels in the order asked. C, A, B
